FYI, the data here is from patent EP4786492A1.

Target: monkey DLL3 on CHO-K1-cyno DLL3 cells (cynomolgus monkey)
Sequence (chain, as listed by the source limits assumed): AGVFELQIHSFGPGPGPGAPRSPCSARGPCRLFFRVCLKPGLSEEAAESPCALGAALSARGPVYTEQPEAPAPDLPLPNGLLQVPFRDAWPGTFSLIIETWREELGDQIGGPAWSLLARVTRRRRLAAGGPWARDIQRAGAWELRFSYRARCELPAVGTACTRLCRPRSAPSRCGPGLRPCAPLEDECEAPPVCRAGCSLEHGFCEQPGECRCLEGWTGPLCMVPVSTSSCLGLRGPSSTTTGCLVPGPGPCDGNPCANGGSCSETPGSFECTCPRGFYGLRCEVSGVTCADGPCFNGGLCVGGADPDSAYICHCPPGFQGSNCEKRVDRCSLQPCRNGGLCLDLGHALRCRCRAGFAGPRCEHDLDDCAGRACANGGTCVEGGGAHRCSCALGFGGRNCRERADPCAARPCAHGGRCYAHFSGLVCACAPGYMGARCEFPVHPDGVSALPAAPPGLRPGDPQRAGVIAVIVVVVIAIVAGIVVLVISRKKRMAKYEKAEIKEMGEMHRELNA
Test: FACS, CHO-K1-cyno DLL3 cells, 0.032 nM antibody
I'd appreciate it if you could supply MFI values for the items below.
The reply should contain only the number, in MFI.

Could you please provide reported MFI for Hab014VL1VH2-hFc (scFv, part only; not given: VL-VH linker and human IgG1 Fc, V domains shown, not shown: another chain or arm of the molecule; a dimerising Fc or GST; small tags and cut ends) VL: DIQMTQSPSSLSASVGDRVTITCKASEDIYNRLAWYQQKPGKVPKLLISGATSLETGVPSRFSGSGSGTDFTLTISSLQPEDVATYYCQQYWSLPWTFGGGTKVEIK VH: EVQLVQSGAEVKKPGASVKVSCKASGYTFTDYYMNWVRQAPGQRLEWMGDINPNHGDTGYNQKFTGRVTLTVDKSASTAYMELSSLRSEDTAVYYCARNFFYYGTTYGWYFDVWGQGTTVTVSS ? Thanks!
692

Could you please provide reported MFI for Hab015VL4VH1b-hFc (scFv, part only; not given: VL-VH linker and human IgG1 Fc, V domains shown, not shown: another chain or arm of the molecule; a dimerising Fc or GST; small tags and cut ends) VL: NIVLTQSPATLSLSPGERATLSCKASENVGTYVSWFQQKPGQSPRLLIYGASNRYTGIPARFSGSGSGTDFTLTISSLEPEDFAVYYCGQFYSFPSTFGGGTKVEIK VH: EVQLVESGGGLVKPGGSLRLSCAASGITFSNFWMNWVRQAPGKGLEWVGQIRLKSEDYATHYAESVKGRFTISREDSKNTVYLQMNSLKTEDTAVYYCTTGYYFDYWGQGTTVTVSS ? Thanks!
389

Could you please provide reported MFI for Hab015VL4VH1a-hFc (scFv, part only; not given: scFv linker and human IgG1 Fc, V domains shown, not shown: another chain or arm of the molecule; a dimerising Fc or GST; small tags and cut ends) VL: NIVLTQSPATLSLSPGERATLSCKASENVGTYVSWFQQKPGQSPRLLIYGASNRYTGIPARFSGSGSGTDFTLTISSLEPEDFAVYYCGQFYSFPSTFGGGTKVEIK VH: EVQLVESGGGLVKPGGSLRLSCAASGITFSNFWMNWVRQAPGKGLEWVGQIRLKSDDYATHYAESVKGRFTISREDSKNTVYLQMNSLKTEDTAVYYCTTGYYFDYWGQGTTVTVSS ? Thanks!
399
